Target: DYRK2 (Homo sapiens)
Construct: purchased Carna Biosciences, Inc. 04-132
Sequence (Q92630 74-601 limits assumed): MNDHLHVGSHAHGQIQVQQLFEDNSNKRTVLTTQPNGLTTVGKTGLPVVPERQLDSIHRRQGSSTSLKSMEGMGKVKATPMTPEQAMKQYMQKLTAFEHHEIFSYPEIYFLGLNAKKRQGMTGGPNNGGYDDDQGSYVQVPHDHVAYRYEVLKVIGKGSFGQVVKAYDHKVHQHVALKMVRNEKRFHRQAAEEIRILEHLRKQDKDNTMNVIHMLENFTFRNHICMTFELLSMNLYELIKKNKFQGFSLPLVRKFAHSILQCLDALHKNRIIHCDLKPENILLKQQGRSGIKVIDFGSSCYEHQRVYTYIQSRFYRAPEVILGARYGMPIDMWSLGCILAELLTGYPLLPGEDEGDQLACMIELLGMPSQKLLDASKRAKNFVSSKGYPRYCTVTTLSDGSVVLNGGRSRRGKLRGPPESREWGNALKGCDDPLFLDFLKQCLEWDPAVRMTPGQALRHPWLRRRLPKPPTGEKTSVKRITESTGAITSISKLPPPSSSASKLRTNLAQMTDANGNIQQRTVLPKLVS
Assay: Inhibition test on activity of DYRK family, mobility shift assay (MSA): DYRK2
Type: biochemical
Settings: read-out: Inhibitory activity DYRK 2
Below, each entry is listed alongside its reported IC50.

O=C1N[C@H]2CN(C3CC3)C[C@H]2N1c1nc2c3c(ccc2s1)OCC3 [Example 101]    ≥ 1000 nM
C#CCN1CCC[C@@H]2NC(=O)N(c3nc4c5c(ccc4s3)OCC5)[C@@H]2C1 (racemic) [Example 105]    ≥ 1000 nM
N#CCN1C[C@@H]2NC(=O)N(c3nc4c5c(ccc4s3)OCC5)[C@@H]2C1 (racemic) [Example 103]    ≥ 1000 nM

The record that follows has no IC50 shown yet.
Which measured IC50 belongs to N#C[C@H]1C[C@@H]2[C@H](CO1)NC(=O)N2c1nc2c3c(ccc2s1)OCC3 [Example 127] , tested on DYRK2 (Homo sapiens)?
100 to 1000 nM
